Where these numbers come from: patent US20250215100A1

Target: human CD40 on cells (human, UniProt P25942 21-277)
Sequence (P25942 21-277): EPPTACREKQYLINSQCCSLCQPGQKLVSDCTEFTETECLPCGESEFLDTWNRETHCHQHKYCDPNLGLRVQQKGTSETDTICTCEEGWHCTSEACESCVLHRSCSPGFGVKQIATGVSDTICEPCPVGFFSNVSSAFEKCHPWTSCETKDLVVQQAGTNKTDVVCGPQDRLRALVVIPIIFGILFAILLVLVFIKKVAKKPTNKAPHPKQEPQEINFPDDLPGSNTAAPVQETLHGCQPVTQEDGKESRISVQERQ
Assay: cell-based or functional assay
observed-property: Maximum fold (fold), crosslinked
Respond with a number, then the unit of measure.

# binder, measured
rows = [
    ("PR006510 (antibody, human IgG1, kappa, V domains shown, PR003379 variant L:S93R; human IgG1 L234A, L235A, G237A) VH: QVQLVQSGAEVKKPGASVKVSCKASGYTFAGYYMYWVRQAPGQGLEWMGWINPDSGAPTYAQKFQGRVTMTRDTSISTAYMELSRLRSDDTAVYYCAREKIYYGSGNYYPSFDYWGQGTLVTVSS VL: DIQLTQSPSFLSASVGDRVTITCRASQGISSYLAWYQQKPGKAPKLLIYAASTLQSGVPSRFSGSGSGTEFTLTISSLQPEDFATYYCQQLNRYPWTFGQGTKVEIKR", "4.66 fold"),
    ("PR006511 (antibody, human IgG1, kappa, V domains shown, PR003379 variant L:S93N; human IgG1 L234A, L235A, G237A) VH: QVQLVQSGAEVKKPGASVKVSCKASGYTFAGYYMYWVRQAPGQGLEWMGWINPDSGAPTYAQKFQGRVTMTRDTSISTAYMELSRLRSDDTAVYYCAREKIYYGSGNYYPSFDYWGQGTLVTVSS VL: DIQLTQSPSFLSASVGDRVTITCRASQGISSYLAWYQQKPGKAPKLLIYAASTLQSGVPSRFSGSGSGTEFTLTISSLQPEDFATYYCQQLNNYPWTFGQGTKVEIKR", "5.19 fold"),
]

Turning to the following binder.
INPUT: # lookup: Maximum fold (fold), crosslinked of PR006500 (antibody, human IgG1, kappa, V domains shown, PR003379 variant L:N92M; human IgG1 L234A, L235A, G237A) VH: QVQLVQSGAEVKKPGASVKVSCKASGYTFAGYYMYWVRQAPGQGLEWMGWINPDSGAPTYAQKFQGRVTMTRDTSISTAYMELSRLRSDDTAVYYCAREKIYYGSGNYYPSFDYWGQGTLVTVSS VL: DIQLTQSPSFLSASVGDRVTITCRASQGISSYLAWYQQKPGKAPKLLIYAASTLQSGVPSRFSGSGSGTEFTLTISSLQPEDFATYYCQQLMSYPWTFGQGTKVEIKR
OUTPUT: 5.55 fold
